Source listed as patent US20150093336A1.

# test.target: T1, Recombinant human MMR (R&D systems) (human, UniProt P22897 19-1383)
# T1 construct: Antigen of the PE-ELISA and the SPR; also called hMMR; recombinant hMMR
# T1 sequence: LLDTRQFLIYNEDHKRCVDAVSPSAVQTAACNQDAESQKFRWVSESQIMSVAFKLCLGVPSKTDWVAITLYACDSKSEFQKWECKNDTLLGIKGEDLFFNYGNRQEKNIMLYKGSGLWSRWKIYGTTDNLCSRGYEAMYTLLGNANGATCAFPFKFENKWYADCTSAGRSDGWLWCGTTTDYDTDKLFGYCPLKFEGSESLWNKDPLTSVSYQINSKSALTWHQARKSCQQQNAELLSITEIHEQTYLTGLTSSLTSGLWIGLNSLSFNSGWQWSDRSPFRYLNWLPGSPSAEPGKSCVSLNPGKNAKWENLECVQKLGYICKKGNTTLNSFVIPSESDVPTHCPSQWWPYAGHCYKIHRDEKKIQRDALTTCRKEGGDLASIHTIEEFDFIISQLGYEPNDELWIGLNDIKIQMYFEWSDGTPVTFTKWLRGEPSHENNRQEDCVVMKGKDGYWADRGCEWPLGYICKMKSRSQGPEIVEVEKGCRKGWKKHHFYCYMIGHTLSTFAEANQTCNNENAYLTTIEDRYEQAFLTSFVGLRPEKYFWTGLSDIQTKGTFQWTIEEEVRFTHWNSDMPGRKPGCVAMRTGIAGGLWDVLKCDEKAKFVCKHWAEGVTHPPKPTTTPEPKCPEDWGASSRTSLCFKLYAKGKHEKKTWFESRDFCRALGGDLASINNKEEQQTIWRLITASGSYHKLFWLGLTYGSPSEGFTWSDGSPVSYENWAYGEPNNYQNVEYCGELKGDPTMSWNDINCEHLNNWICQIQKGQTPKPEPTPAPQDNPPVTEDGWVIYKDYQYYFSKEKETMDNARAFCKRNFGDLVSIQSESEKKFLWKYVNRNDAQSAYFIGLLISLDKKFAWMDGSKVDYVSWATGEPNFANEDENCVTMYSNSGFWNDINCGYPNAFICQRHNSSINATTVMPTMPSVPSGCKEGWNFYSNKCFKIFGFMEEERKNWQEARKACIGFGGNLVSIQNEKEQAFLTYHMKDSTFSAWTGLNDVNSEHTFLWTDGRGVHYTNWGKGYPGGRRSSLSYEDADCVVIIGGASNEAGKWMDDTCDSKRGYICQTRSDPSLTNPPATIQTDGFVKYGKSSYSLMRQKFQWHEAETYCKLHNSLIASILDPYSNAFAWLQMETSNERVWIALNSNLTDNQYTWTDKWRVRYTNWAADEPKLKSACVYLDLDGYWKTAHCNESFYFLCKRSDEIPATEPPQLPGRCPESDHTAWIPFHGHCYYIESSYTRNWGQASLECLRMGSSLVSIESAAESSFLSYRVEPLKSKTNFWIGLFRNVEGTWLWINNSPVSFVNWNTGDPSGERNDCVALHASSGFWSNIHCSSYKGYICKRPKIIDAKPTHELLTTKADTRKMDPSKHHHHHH
# protocol: SPR, BIAcore T100; human MMR on CM5 chip, sdAb as analyte
measured.parameter: koff (s⁻¹)
The response must be a number in s⁻¹ with no trailing unit.

[in] Which koff value belongs to NbhMMRm1.33 (VHH, Produced from pMECS in E. coli WK6 with C-terminal HA and 6xHis tag; also called NbMMRm1.33) VHH: QVQLQESGGGLVQPGGSLRLSCAASGFTLDNYTVAWFRQAPGKEREGVSCISSSGGSTNYADSVKGRFTISRDNSKKSVYLQMNSLKPEDTAIYTCAAERAPPYYSGYYFFDSTCVAASYDYWGQGTQVTVSS ?
[out] 0.0015

[in] Which koff value belongs to NbhmMMRm19.52 (VHH, Produced from pMECS with C-terminal HA and 6xHis tag) VHH: QVQLQESGGGLVQAGGSLRLSCLASGDTFSNYVMAWFRQAPGKEREIVAAIRLSGARYVPDSVKGRFTISRDNAKNAMYLQMTSLKPEDTARYYCAAGHTWGQYAYWGQGTQVTVSS ?
[out] 0.01

[in] Which koff value belongs to NbhMMRm2.15 (VHH, Produced from pMECS with C-terminal HA and 6xHis tag) VHH: QVQLQESGGGLVQPGESLRLSCKLSGFTLDYYDIGWFRQAPGKEREGVSCISSIGGSANYADSVKGRFTISRDNVKNTVYLQMNSLKPEDTAIYYCAAEAQTPYNDGDCTRASYDYWGQGIQVTVSS ?
[out] 0.0013

[in] Which koff value belongs to NbhMMRm12.6 (VHH, Produced from pMECS with C-terminal HA and 6xHis tag) VHH: QVQLQESGGGLVQPGGSLRLSCVVSGSFLSINHMGWYRQVSGEQRELVAAITSGGSTNYADSVKGRFTISRDSAKNTVYLQMNSLKPEDTAVYYCNADALTMLPPFDFWGQGTQVTVSS ?
[out] 0.0012

[in] Which koff value belongs to NbhmMMRm26.70 (VHH, Produced from pMECS with C-terminal HA and 6xHis tag) VHH: QVQLQESGGGLVQPGGSLRLSCTASGFPFSSAPMSWVRQAPGKELEWVSYIGYTGTITDYANSVKGRFTISRDNAKNRLYLQMNSLKPEDTAVYFCAQGYARLIADSDLVRGQGTQVTVSS ?
[out] 0.0073
